The origin of these recorded values is paper PMC3261944.

- study target: ER (Homo sapiens, UniProt P03372)
- Construct: This cell line was stably transfected with the luciferase reporter gene and estrogen-responsive element derived from the Xenopus vitellogenin A2 gene; endogenous in cells; host or cells: MVLN cells (provided by J.P. Giesy)
- Sequence (P03372 whole entry): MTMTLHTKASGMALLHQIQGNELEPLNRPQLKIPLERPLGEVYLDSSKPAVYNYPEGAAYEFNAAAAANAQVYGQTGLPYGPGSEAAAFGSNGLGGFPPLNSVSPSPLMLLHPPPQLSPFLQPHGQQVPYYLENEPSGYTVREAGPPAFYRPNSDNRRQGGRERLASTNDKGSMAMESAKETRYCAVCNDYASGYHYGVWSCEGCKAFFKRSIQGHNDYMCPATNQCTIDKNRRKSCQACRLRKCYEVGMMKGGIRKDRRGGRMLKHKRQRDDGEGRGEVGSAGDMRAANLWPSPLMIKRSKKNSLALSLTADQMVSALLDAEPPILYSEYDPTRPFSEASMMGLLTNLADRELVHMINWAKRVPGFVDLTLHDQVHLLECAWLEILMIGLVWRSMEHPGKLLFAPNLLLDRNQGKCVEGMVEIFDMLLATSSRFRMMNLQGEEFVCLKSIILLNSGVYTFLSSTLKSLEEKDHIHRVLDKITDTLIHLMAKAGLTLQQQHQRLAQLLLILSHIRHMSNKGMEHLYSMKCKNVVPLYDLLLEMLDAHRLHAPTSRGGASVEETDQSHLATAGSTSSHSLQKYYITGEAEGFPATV
- assay details: MVLN assay (estrogen-responsive luciferase reporter transactivation)
- Assay type: cell-based
- condition description: percentage of the maximum induction (luciferase) of tested compound to that of E2; 2 days exposure
Catalogue of compounds with associated MVLN assay Maximum induction (%)
Respond with the bare value in %.

FC(F)(F)C(F)(F)C(F)(F)C(F)(F)C(F)(F)C(F)(F)C(F)(F)C(F)(F)I :: 25
FC(F)(I)C(F)(F)C(F)(F)C(F)(F)C(F)(F)C(F)(F)I :: 73

According to the records, this compound FC(F)(I)C(F)(F)C(F)(F)C(F)(F)I displays MVLN assay Maximum induction (%) of 21

According to the records, this compound FC(F)(F)C(F)(F)C(F)(F)C(F)(F)C(F)(F)C(F)(F)I displays MVLN assay Maximum induction (%) of 47

According to the records, this compound FC(F)(I)C(F)(F)C(F)(F)C(F)(F)C(F)(F)C(F)(F)C(F)(F)C(F)(F)I displays MVLN assay Maximum induction (%) of 38
